# CONDITION DESCRIPTION: in ethanol, 345 K

STRUCTURE NOTATION | solubility (mole fraction)
CO[C@H]1C[C@@H]2CC[C@@H](C)[C@@](O)(O2)C(=O)C(=O)N2CCCC[C@H]2C(=O)O[C@H]([C@H](C)C[C@@H]2CC[C@@H](O)[C@H](OC)C2)CC(=O)[C@H](C)/C=C(\C)[C@@H](O)[C@@H](OC)C(=O)[C@H](C)C[C@H](C)/C=C/C=C/C=C/1C | 0.00317

* * *

# CONDITION DESCRIPTION: in ethanol, 305 K

STRUCTURE NOTATION | solubility (mole fraction)
CO[C@H]1C[C@@H]2CC[C@@H](C)[C@@](O)(O2)C(=O)C(=O)N2CCCC[C@H]2C(=O)O[C@H]([C@H](C)C[C@@H]2CC[C@@H](O)[C@H](OC)C2)CC(=O)[C@H](C)/C=C(\C)[C@@H](O)[C@@H](OC)C(=O)[C@H](C)C[C@H](C)/C=C/C=C/C=C/1C | 0.00163

* * *

# CONDITION DESCRIPTION: in dichloromethane, 340 K

STRUCTURE NOTATION | solubility (mole fraction)
CO[C@H]1C[C@@H]2CC[C@@H](C)[C@@](O)(O2)C(=O)C(=O)N2CCCC[C@H]2C(=O)O[C@H]([C@H](C)C[C@@H]2CC[C@@H](O)[C@H](OC)C2)CC(=O)[C@H](C)/C=C(\C)[C@@H](O)[C@@H](OC)C(=O)[C@H](C)C[C@H](C)/C=C/C=C/C=C/1C | 0.00397

* * *

# CONDITION DESCRIPTION: in acetone, 300 K

STRUCTURE NOTATION | solubility (mole fraction)
CO[C@H]1C[C@@H]2CC[C@@H](C)[C@@](O)(O2)C(=O)C(=O)N2CCCC[C@H]2C(=O)O[C@H]([C@H](C)C[C@@H]2CC[C@@H](O)[C@H](OC)C2)CC(=O)[C@H](C)/C=C(\C)[C@@H](O)[C@@H](OC)C(=O)[C@H](C)C[C@H](C)/C=C/C=C/C=C/1C | 0.00321

* * *

# CONDITION DESCRIPTION: in chloroform, 300 K

STRUCTURE NOTATION | solubility (mole fraction)
CO[C@H]1C[C@@H]2CC[C@@H](C)[C@@](O)(O2)C(=O)C(=O)N2CCCC[C@H]2C(=O)O[C@H]([C@H](C)C[C@@H]2CC[C@@H](O)[C@H](OC)C2)CC(=O)[C@H](C)/C=C(\C)[C@@H](O)[C@@H](OC)C(=O)[C@H](C)C[C@H](C)/C=C/C=C/C=C/1C | 0.00289

* * *

# CONDITION DESCRIPTION: in ethanol, 335 K

STRUCTURE NOTATION | solubility (mole fraction)
CO[C@H]1C[C@@H]2CC[C@@H](C)[C@@](O)(O2)C(=O)C(=O)N2CCCC[C@H]2C(=O)O[C@H]([C@H](C)C[C@@H]2CC[C@@H](O)[C@H](OC)C2)CC(=O)[C@H](C)/C=C(\C)[C@@H](O)[C@@H](OC)C(=O)[C@H](C)C[C@H](C)/C=C/C=C/C=C/1C | 0.00275

* * *

# CONDITION DESCRIPTION: in ethanol, 295 K

STRUCTURE NOTATION | solubility (mole fraction)
CO[C@H]1C[C@@H]2CC[C@@H](C)[C@@](O)(O2)C(=O)C(=O)N2CCCC[C@H]2C(=O)O[C@H]([C@H](C)C[C@@H]2CC[C@@H](O)[C@H](OC)C2)CC(=O)[C@H](C)/C=C(\C)[C@@H](O)[C@@H](OC)C(=O)[C@H](C)C[C@H](C)/C=C/C=C/C=C/1C | 0.00137

* * *

# CONDITION DESCRIPTION: in methanol, 345 K

STRUCTURE NOTATION | solubility (mole fraction)
CO[C@H]1C[C@@H]2CC[C@@H](C)[C@@](O)(O2)C(=O)C(=O)N2CCCC[C@H]2C(=O)O[C@H]([C@H](C)C[C@@H]2CC[C@@H](O)[C@H](OC)C2)CC(=O)[C@H](C)/C=C(\C)[C@@H](O)[C@@H](OC)C(=O)[C@H](C)C[C@H](C)/C=C/C=C/C=C/1C | 0.00205

* * *

# CONDITION DESCRIPTION: in acetone, 330 K

STRUCTURE NOTATION | solubility (mole fraction)
CO[C@H]1C[C@@H]2CC[C@@H](C)[C@@](O)(O2)C(=O)C(=O)N2CCCC[C@H]2C(=O)O[C@H]([C@H](C)C[C@@H]2CC[C@@H](O)[C@H](OC)C2)CC(=O)[C@H](C)/C=C(\C)[C@@H](O)[C@@H](OC)C(=O)[C@H](C)C[C@H](C)/C=C/C=C/C=C/1C | 0.00511

* * *

# CONDITION DESCRIPTION: in ethanol, 315 K
RECORDED METRIC: solubility (mole fraction)

STRUCTURE NOTATION | RECORDED METRIC | RECORDED NUMBER
CO[C@H]1C[C@@H]2CC[C@@H](C)[C@@](O)(O2)C(=O)C(=O)N2CCCC[C@H]2C(=O)O[C@H]([C@H](C)C[C@@H]2CC[C@@H](O)[C@H](OC)C2)CC(=O)[C@H](C)/C=C(\C)[C@@H](O)[C@@H](OC)C(=O)[C@H](C)C[C@H](C)/C=C/C=C/C=C/1C | solubility (mole fraction) | 0.00197

* * *

# CONDITION DESCRIPTION: in methanol, 335 K

STRUCTURE NOTATION | solubility (mole fraction)
CO[C@H]1C[C@@H]2CC[C@@H](C)[C@@](O)(O2)C(=O)C(=O)N2CCCC[C@H]2C(=O)O[C@H]([C@H](C)C[C@@H]2CC[C@@H](O)[C@H](OC)C2)CC(=O)[C@H](C)/C=C(\C)[C@@H](O)[C@@H](OC)C(=O)[C@H](C)C[C@H](C)/C=C/C=C/C=C/1C | 0.00183

* * *

# CONDITION DESCRIPTION: in dichloromethane, 300 K

STRUCTURE NOTATION | solubility (mole fraction)
CO[C@H]1C[C@@H]2CC[C@@H](C)[C@@](O)(O2)C(=O)C(=O)N2CCCC[C@H]2C(=O)O[C@H]([C@H](C)C[C@@H]2CC[C@@H](O)[C@H](OC)C2)CC(=O)[C@H](C)/C=C(\C)[C@@H](O)[C@@H](OC)C(=O)[C@H](C)C[C@H](C)/C=C/C=C/C=C/1C | 0.00201

* * *

# CONDITION DESCRIPTION: in chloroform, 305 K

STRUCTURE NOTATION | solubility (mole fraction)
CO[C@H]1C[C@@H]2CC[C@@H](C)[C@@](O)(O2)C(=O)C(=O)N2CCCC[C@H]2C(=O)O[C@H]([C@H](C)C[C@@H]2CC[C@@H](O)[C@H](OC)C2)CC(=O)[C@H](C)/C=C(\C)[C@@H](O)[C@@H](OC)C(=O)[C@H](C)C[C@H](C)/C=C/C=C/C=C/1C | 0.00311

* * *

# CONDITION DESCRIPTION: in methanol, 315 K

STRUCTURE NOTATION | solubility (mole fraction)
CO[C@H]1C[C@@H]2CC[C@@H](C)[C@@](O)(O2)C(=O)C(=O)N2CCCC[C@H]2C(=O)O[C@H]([C@H](C)C[C@@H]2CC[C@@H](O)[C@H](OC)C2)CC(=O)[C@H](C)/C=C(\C)[C@@H](O)[C@@H](OC)C(=O)[C@H](C)C[C@H](C)/C=C/C=C/C=C/1C | 0.00143

* * *

# CONDITION DESCRIPTION: in chloroform, 345 K

STRUCTURE NOTATION | solubility (mole fraction)
CO[C@H]1C[C@@H]2CC[C@@H](C)[C@@](O)(O2)C(=O)C(=O)N2CCCC[C@H]2C(=O)O[C@H]([C@H](C)C[C@@H]2CC[C@@H](O)[C@H](OC)C2)CC(=O)[C@H](C)/C=C(\C)[C@@H](O)[C@@H](OC)C(=O)[C@H](C)C[C@H](C)/C=C/C=C/C=C/1C | 0.00495

* * *

# CONDITION DESCRIPTION: in dichloromethane, 345 K
RECORDED METRIC: solubility (mole fraction)

STRUCTURE NOTATION | RECORDED NUMBER
CO[C@H]1C[C@@H]2CC[C@@H](C)[C@@](O)(O2)C(=O)C(=O)N2CCCC[C@H]2C(=O)O[C@H]([C@H](C)C[C@@H]2CC[C@@H](O)[C@H](OC)C2)CC(=O)[C@H](C)/C=C(\C)[C@@H](O)[C@@H](OC)C(=O)[C@H](C)C[C@H](C)/C=C/C=C/C=C/1C | 0.00433
